Data provenance: patent US8071786B2

Biological target: 5-HT2C (Homo sapiens)
Sequence (P28335 33-458): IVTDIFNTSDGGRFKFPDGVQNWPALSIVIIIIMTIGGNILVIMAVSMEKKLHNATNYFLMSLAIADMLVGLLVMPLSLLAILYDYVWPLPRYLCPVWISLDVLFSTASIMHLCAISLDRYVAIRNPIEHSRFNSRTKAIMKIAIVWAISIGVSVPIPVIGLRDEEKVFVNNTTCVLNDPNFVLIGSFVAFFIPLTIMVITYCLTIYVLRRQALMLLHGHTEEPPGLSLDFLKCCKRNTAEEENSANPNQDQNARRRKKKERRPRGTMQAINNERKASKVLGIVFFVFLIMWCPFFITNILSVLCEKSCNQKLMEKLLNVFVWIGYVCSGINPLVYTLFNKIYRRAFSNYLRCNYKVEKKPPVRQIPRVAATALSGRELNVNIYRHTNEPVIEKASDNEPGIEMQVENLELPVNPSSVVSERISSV
readout_kind: Ki (nM)
Unit nM implied. Number only.

A selection of reference data follows.
structure_smiles_string | Ki (nM)
CN(C)CCc1cn(CCF)c2c(F)ccc(O)c12 | 7.74
CN(C)CCc1cn(C)c2c(F)ccc(O)c12 | 25.4
CCCn1cc(CCN(C)C)c2c(O)ccc(F)c21 | 10.5

# context switch: different compound, same Ki
Query: I'd like to know its Ki. The compound in question is `CCn1cc(CCN(C)C)c2c(O)ccc(F)c21`
Reply: 9.1
